Target: CDK12 complexed with Cyclin K (Homo sapiens)
Construct: GST (N)
Experiment: Alternative CDK Enzymatic Assays (HTRF, pre-incubation with compounds and 1 mM ATP), Example A2
Type: biochemical
Conditions: enzyme pre-incubated with compounds and 1 mM ATP for 60 minutes; reaction 120 minutes at 25° C.
Measured IC50, listed per entry.

C=CC(=O)Nc1cc2nc(N3C[C@H](F)C[C@@H](Nc4ncc(C(F)F)cn4)C3)n(C)c2cc1C : 50 to 500 nM
C=CC(=O)N1[C@H](C)CN(c2nccn3c(N4C[C@H](F)C[C@@H](Nc5ncc(C(F)(F)F)cn5)C4)ncc23)C[C@@H]1C : 50 to 500 nM
C=CC(=O)Nc1cc2nc(N3C[C@H](F)C[C@@H](Nc4ncc(C(F)(F)F)cn4)C3)n(C)c2cc1COC : < 50 nM
C=CC(=O)Nc1cc2nc(N3C[C@H](F)C[C@@H](Nc4ncc(C(F)(F)F)cn4)C3)n(C)c2cc1C#N : < 50 nM
C=CC(=O)Nc1cc2nc(N3CCC[C@@H](Nc4ncc(C(F)(F)F)cn4)C3)n(C)c2cc1C : < 50 nM
C=CC(=O)N1CCN(c2ccc3c(c2)nc(N2CCC[C@@H](Nc4ncc(C(F)(F)F)cn4)C2)n3C)CC1 : 50 to 500 nM

Quick note, IC50 for `C=CC(=O)Nc1cc2nc(N3C[C@H](Nc4ncc(C(F)(F)F)cn4)C[C@@H](OC)C3)n(C)c2cc1C` landed at 50 to 500 nM

Quick note, IC50 for C=CC(=O)N1CCCCC1c1ccc2c(c1)nc(N1C[C@H](O)C[C@@H](Nc3ncc(C(F)(F)F)cn3)C1)n2C (stereo partly shown) landed at 50 to 500 nM

IC50 reported for this compound `C=CC(=O)Nc1cc2nc(N3C[C@H](O)C[C@@H](Nc4ncc(C#N)cn4)C3)n(C)c2cc1C` : 50 to 500 nM

Measured IC50 of `C=CC(=O)Nc1cc2nc(N3C[C@H](F)C[C@@H](Nc4ncc(C(F)(F)F)cn4)C3)n(C)c2cc1CC` : 50 to 500 nM

Lab note: `C=CC(=O)Nc1cc2nc(N3C[C@H](F)C[C@@H](Nc4ncc(C#N)cn4)C3)n(C)c2cc1C` gave IC50 of 50 to 500 nM

Please fill in: IC50 reported for `C=CC(=O)Nc1cc2nc(N3C[C@H](F)C[C@@H](Nc4ncc(C(F)(F)F)cn4)C3)n(C)c2cc1Cl` = < 50 nM

Looking up `C=CC(=O)N1C[C@@H]2C[C@H]1CN2c1nccn2c(N3C[C@H](F)C[C@@H](Nc4ncc(C(F)(F)F)cn4)C3)ncc12` , I see its IC50 listed as 50 to 500 nM

----------
Target: CDK12 complexed with Cyclin K (Homo sapiens, UniProt Q9NYV4)
Construct: GST (N)
Sequence (Q9NYV4 whole entry): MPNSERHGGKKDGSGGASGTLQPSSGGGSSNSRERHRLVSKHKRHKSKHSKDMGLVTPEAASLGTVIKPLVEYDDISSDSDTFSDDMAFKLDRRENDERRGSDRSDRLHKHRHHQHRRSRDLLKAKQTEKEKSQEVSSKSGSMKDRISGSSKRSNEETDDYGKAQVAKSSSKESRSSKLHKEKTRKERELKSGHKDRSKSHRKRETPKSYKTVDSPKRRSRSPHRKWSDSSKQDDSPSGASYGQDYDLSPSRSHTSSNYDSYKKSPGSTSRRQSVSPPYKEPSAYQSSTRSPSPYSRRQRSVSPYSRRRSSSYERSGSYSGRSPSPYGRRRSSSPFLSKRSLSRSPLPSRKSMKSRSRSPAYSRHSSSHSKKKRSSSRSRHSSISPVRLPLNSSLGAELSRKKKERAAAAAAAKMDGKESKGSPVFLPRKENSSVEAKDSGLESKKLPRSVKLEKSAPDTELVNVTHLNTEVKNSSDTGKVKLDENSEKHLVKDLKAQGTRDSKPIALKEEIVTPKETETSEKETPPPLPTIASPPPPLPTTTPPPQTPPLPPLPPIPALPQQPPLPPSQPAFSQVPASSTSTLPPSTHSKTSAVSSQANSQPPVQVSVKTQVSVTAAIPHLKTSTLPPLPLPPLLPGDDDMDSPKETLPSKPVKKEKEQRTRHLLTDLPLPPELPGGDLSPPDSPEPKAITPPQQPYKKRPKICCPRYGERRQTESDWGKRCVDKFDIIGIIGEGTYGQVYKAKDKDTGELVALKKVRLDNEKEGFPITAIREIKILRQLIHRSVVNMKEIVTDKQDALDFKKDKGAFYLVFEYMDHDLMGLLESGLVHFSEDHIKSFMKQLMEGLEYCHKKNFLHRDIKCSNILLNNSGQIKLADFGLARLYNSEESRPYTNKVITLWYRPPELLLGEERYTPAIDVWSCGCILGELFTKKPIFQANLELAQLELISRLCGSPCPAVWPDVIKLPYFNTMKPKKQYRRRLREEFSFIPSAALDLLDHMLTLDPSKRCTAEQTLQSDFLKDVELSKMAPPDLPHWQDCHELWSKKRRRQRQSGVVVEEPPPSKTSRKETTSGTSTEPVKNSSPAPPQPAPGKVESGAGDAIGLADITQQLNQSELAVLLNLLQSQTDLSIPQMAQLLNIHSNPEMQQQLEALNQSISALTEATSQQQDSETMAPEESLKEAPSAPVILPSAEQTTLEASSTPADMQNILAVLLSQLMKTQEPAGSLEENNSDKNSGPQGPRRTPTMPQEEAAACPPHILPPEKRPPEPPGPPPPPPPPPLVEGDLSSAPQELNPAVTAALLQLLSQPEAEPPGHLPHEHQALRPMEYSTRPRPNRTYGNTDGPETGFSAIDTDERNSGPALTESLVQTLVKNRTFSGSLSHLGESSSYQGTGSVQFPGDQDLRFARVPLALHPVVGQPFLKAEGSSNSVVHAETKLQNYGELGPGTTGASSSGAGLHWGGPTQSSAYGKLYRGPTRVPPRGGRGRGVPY
Sequence (O75909 whole entry partner): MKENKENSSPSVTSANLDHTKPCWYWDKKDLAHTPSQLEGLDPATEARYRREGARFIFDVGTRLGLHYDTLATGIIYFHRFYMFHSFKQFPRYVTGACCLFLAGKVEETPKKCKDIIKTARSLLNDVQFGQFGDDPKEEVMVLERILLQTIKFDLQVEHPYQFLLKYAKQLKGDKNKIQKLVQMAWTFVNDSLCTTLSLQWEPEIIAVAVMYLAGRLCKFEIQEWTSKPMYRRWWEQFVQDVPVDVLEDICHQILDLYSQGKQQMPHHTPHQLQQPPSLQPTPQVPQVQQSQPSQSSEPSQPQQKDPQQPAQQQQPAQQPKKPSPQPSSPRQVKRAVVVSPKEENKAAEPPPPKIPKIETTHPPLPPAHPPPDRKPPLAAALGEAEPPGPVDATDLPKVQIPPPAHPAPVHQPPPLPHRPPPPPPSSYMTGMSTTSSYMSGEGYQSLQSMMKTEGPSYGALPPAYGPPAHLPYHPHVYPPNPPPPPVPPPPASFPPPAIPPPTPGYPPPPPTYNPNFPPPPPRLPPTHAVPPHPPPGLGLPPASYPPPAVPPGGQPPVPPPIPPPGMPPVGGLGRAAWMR
Assay: CDK Enzymatic Assays (HTRF, LANCE Ultra kinase assay), Example A1
Type: biochemical
Settings: enzyme pre-incubated with compounds for 60 minutes prior to addition of ATP (1 mM final) and Ulight-peptide; reaction 60-90 minutes at room temperature
pIC50: −log10 of the molar value.
outcome measure: pIC50

Consider the following illustrative entries.
C=CC(=O)Nc1ccc2c(c1)C(=O)N([C@H]1CCC[C@@H](Nc3ncc(C)c(OC)n3)C1)C2 : 6.30 to 7.30
C=CC(=O)Nc1nc2cccc(N3CC[C@@H](Nc4ncc(C#N)c(OC)n4)C3)n2n1 : > 7.30
C=CC(=O)Nc1ccc2c(c1)C(=O)N([C@H]1CCC[C@@H](Nc3cc(C(F)(F)F)c(C#N)cn3)C1)C2 : > 7.30

Tested system CDK12 complexed with Cyclin K (Homo sapiens, UniProt Q9NYV4); pIC50 recorded for `C=CC(=O)Nc1ccc2c(N3CCC[C@@H](Nc4ncc(C#N)c(OC)n4)C3)csc2c1` was 6.30 to 7.30

`C=CC(=O)N1C2CCC1CN(c1nccn3c(N4CCC[C@@H](Nc5ncc(C(F)(F)F)cn5)C4)ncc13)C2` tested on CDK12 complexed with Cyclin K (Homo sapiens, UniProt Q9NYV4) gave pIC50: > 7.30

Item `C=CC(=O)Nc1ccc2c(c1)C(=O)N([C@H]1CCC[C@@H](Nc3ncc(C(F)(F)F)c(OC)n3)C1)C2` was tested on CDK12 complexed with Cyclin K (Homo sapiens, UniProt Q9NYV4); the reported pIC50 is > 7.30

The compound `C=CC(=O)Nc1ccc2c(c1)nc(N1CCC(F)(F)[C@@H](Nc3ncc(C(F)(F)F)cn3)C1)n2C` , when measured on CDK12 complexed with Cyclin K (Homo sapiens, UniProt Q9NYV4), yielded pIC50 of > 7.30

The reported CDK12 complexed with Cyclin K (Homo sapiens, UniProt Q9NYV4) pIC50 of COc1nc(N[C@@H]2CCC[C@H](N3Cc4ccc(NC(=O)C(C)Br)cc4C3=O)C2)ncc1C#N (some centres unmarked) is > 7.30

Response field pIC50 (CDK12 complexed with Cyclin K (Homo sapiens, UniProt Q9NYV4)) for item `CCOC(=O)/C=C/C(=O)Nc1ccc2c(c1)nc([C@H]1CCC[C@@H](Nc3ncc(C#N)c(OC)n3)C1)n2C` : > 7.30

// assay CDK12 complexed with Cyclin K (Homo sapiens, UniProt Q9NYV4), entry `C=CC(=O)Nc1cccc2c(N3CCC[C@@H](Nc4ncc(C#N)c(OC)n4)C3)noc12` , pIC50 value = > 7.30

Value (pIC50, CDK12 complexed with Cyclin K (Homo sapiens, UniProt Q9NYV4)) for record `C=CC(=O)Nc1ccc2c(ccn2[C@H]2CCC[C@@H](Nc3ncc(C#N)c(OC)n3)C2)c1` = < 6.30

Value sought: pIC50, system CDK12 complexed with Cyclin K (Homo sapiens, UniProt Q9NYV4), item `C=CC(=O)Nc1ccc2c(c1)C(=O)N([C@H]1CCC[C@@H](Nc3ncc(C#N)c(C)n3)C1)C2` . Result: > 7.30

The observed pIC50 for `C=CC(=O)Nc1ccc2c(c1)C(=O)N([C@H]1CCC[C@@H](Nc3ncc(-c4ccc(OC)cc4)cn3)C1)C2` when tested with CDK12 complexed with Cyclin K (Homo sapiens, UniProt Q9NYV4) stands at < 6.30

The reported pIC50 value, CDK12 complexed with Cyclin K (Homo sapiens, UniProt Q9NYV4), for `C=CC(=O)Nc1ccc2c(c1)nc(N1CCC[C@@H](Nc3ncc(C#N)c(OC)n3)C1)n2C` reads > 7.30

Short answer on CDK12 complexed with Cyclin K (Homo sapiens, UniProt Q9NYV4) for `C=CC(=O)Nc1cccc2c1ncn2[C@H]1CCC[C@@H](Nc2ncc(C#N)c(OC)n2)C1` , pIC50: > 7.30

Item: `C=CC(=O)Nc1ccc2c(c1)nnn2[C@H]1CCC[C@@H](Nc2ncc(C#N)cn2)C1` | System: CDK12 complexed with Cyclin K (Homo sapiens, UniProt Q9NYV4) | pIC50: > 7.30

Note to self: pIC50 of `C=CC(=O)Nc1ccc2c(c1)C(=O)N([C@H]1CCC[C@@H](Nc3ncc(C#N)c(N4CCOCC4)n3)C1)C2` with CDK12 complexed with Cyclin K (Homo sapiens, UniProt Q9NYV4) was > 7.30

Sourced from patent US12643881B2
